- EXPERIMENTAL PROTOCOL: Pharmacokinetics of quetiapine and N-desalkylquetiapine in rats with or without nicardipine
- Format: in vivo, Sprague-Dawley rats
- PARTICULARS: male, Sprague-Dawley, rat, plasma, po, 15 mg/kg, quetiapine in plasma, quetiapine 15 mg/kg + nicardipine 4 mg/kg by gavage 30 min before, read-out: Cmax
- Description: Due to the similarity between their hepatic enzyme system and humans, Sprague-Dawley male rats are widely used in pharmacokinetics ([Martignoni et al., 2006]; [Riccardi et al., 2018]). This pharmacokinetic study was conducted on eight healthy male Sprague-Dawley rats provided by the Animal Experiment Center of the First Affiliated Hospital of Wenzhou Medical University (Zhejiang, China). […]
MEASURE: Cmax
Give me the value, and tack the unit on after it.

Asked: Fill in: Cmax of OCCOCCN1CCN(C2=Nc3ccccc3Sc3ccccc32)CC1 is ___
Given back: 28.8 ng/mL

====

- EXPERIMENTAL PROTOCOL: Pharmacokinetics of quetiapine and N-desalkylquetiapine in rats with or without nicardipine
- Type: in vivo, Sprague-Dawley rats
- PARTICULARS: male, Sprague-Dawley, rat, plasma, po, 15 mg/kg, quetiapine in plasma, quetiapine 15 mg/kg by gavage alone, read-out: Tmax
- Method: Due to the similarity between their hepatic enzyme system and humans, Sprague-Dawley male rats are widely used in pharmacokinetics ([Martignoni et al., 2006]; [Riccardi et al., 2018]). This pharmacokinetic study was conducted on eight healthy male Sprague-Dawley rats provided by the Animal Experiment Center of the First Affiliated Hospital of Wenzhou Medical University (Zhejiang, China). […]
MEASURE: Tmax

Asked: Fill in: Tmax of OCCOCCN1CCN(C2=Nc3ccccc3Sc3ccccc32)CC1 is ___
Given back: 56.4 min

====

- EXPERIMENTAL PROTOCOL: Pharmacokinetics of quetiapine and N-desalkylquetiapine in rats with or without nicardipine
- Assay type: in vivo, Sprague-Dawley rats
- PARTICULARS: male, Sprague-Dawley, rat, plasma, po, 15 mg/kg, quetiapine in plasma, quetiapine 15 mg/kg by gavage alone, read-out: Cmax
MEASURE: Cmax (ng/mL)
Answers are plain numbers, in ng/mL.

Asked: Fill in: Cmax of OCCOCCN1CCN(C2=Nc3ccccc3Sc3ccccc32)CC1 [quetiapine] is ___
Given back: 12

====

- EXPERIMENTAL PROTOCOL: Pharmacokinetics of quetiapine and N-desalkylquetiapine in rats with or without nicardipine
- Assay type: in vivo, Sprague-Dawley rats
- PARTICULARS: male, Sprague-Dawley, rat, plasma, po, 15 mg/kg, quetiapine in plasma, quetiapine 15 mg/kg by gavage alone
MEASURE: half-life (h)
One number for each entry, in h.

Asked: Fill in: half-life of OCCOCCN1CCN(C2=Nc3ccccc3Sc3ccccc32)CC1 [quetiapine] is ___
Given back: 5.12

====

- EXPERIMENTAL PROTOCOL: Pharmacokinetics of quetiapine and N-desalkylquetiapine in rats with or without nicardipine
- Format: in vivo, Sprague-Dawley rats
- PARTICULARS: male, Sprague-Dawley, rat, plasma, po, 15 mg/kg, quetiapine in plasma, quetiapine 15 mg/kg + nicardipine 4 mg/kg by gavage 30 min before
- Description: Due to the similarity between their hepatic enzyme system and humans, Sprague-Dawley male rats are widely used in pharmacokinetics ([Martignoni et al., 2006]; [Riccardi et al., 2018]). This pharmacokinetic study was conducted on eight healthy male Sprague-Dawley rats provided by the Animal Experiment Center of the First Affiliated Hospital of Wenzhou Medical University (Zhejiang, China). […]
MEASURE: half-life
Give me the value, and tack the unit on after it.

Asked: Fill in: half-life of OCCOCCN1CCN(C2=Nc3ccccc3Sc3ccccc32)CC1 is ___
Given back: 5.16 h

====

- EXPERIMENTAL PROTOCOL: Pharmacokinetics of quetiapine and N-desalkylquetiapine in rats with or without nicardipine
- Type: in vivo, Sprague-Dawley rats
- PARTICULARS: male, Sprague-Dawley, rat, plasma, po, 15 mg/kg, quetiapine in plasma, quetiapine 15 mg/kg + nicardipine 4 mg/kg by gavage 30 min before
MEASURE: AUC(0-inf)

Asked: Fill in: AUC(0-inf) of OCCOCCN1CCN(C2=Nc3ccccc3Sc3ccccc32)CC1 is ___
Given back: 108 ng·h/mL

====

- EXPERIMENTAL PROTOCOL: Pharmacokinetics of quetiapine and N-desalkylquetiapine in rats with or without nicardipine
- Format: in vivo, Sprague-Dawley rats
- PARTICULARS: male, Sprague-Dawley, rat, plasma, po, 15 mg/kg, quetiapine in plasma, quetiapine 15 mg/kg + nicardipine 4 mg/kg by gavage 30 min before, read-out: AUC(0-t)
- Procedure: Due to the similarity between their hepatic enzyme system and humans, Sprague-Dawley male rats are widely used in pharmacokinetics ([Martignoni et al., 2006]; [Riccardi et al., 2018]). This pharmacokinetic study was conducted on eight healthy male Sprague-Dawley rats provided by the Animal Experiment Center of the First Affiliated Hospital of Wenzhou Medical University (Zhejiang, China). […]
MEASURE: AUC(0-t) (ng·h/mL)
Numbers only, in ng·h/mL.

Asked: Fill in: AUC(0-t) of OCCOCCN1CCN(C2=Nc3ccccc3Sc3ccccc32)CC1 is ___
Given back: 106
